- EXPERIMENTAL TARGET: recombinant human OX40 fused to a His-tag (Acro Biosystems, cat. no. OX0-H5224) (human) (UniProt P43489)
- Sequence (P43489 29-214 limits assumed): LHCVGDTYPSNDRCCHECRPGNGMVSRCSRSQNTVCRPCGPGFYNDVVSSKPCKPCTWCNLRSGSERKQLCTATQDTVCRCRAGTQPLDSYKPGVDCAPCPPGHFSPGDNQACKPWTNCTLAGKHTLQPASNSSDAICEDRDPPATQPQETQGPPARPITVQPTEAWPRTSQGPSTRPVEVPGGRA
- EXPERIMENT SUMMARY: BLI cross-block; first Ab (competitor): IgG1-CD134-SF2
PROPERTY MEASURED: association response (nm)
Give a bare numeral; the unit nm is implied.

These solved cases illustrate the format of a correct answer.
BINDER | UOM | association response
IgG1-CD134-RG7888 (antibody, INN chains, looked up, V domains shown, IgG1) VH: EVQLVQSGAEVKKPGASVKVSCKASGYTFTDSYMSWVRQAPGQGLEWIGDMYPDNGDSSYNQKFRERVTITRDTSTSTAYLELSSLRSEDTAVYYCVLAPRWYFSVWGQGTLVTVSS VL: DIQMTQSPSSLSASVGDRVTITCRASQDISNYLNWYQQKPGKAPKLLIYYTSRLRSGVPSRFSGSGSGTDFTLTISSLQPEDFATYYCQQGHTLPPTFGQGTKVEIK | nm | 0.01
IgG1-CD134-GBR830 (antibody, INN chains, looked up, V domains shown, IgG1) VH: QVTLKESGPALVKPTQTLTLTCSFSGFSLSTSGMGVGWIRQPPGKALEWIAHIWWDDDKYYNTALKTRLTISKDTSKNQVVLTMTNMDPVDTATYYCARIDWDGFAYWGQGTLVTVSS VL: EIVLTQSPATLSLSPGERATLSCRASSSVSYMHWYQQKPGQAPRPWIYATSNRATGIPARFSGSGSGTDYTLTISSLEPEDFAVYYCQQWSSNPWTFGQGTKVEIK | nm | 0.19
IgG1-CD134-Hu106 (antibody, from another filing, V domains shown) VH: QVQLVQSGSELKKPGASVKVSCKASGYTFTDYSMHWVRQAPGQGLKWMGWINTETGEPTYADDFKGRFVFSLDTSVSTAYLQISSLKAEDTAVYYCANPYYDYVSYYAMDYWGQGTTVTVSS VL: DIQMTQSPSSLSASVGDRVTITCKASQDVSTAVAWYQQKPGKAPKLLIYSASYLYTGVPSRFSGSGSGTDFTFTISSLQPEDIATYYCQQHYSTPRTFGQGTKLEIK | nm | 0.03
IgG1-CD134-ABBV368 (antibody, INN chains, looked up, V domains shown, IgG1) VH: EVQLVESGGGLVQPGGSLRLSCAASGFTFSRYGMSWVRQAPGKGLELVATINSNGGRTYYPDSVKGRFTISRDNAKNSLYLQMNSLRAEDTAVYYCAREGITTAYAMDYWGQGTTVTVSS VL: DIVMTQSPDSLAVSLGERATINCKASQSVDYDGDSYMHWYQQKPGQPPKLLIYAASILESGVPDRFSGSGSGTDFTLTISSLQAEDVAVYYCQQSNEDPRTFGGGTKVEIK | nm | 0.04

Looking for the measured association response of IgG1-CD134-MEDI0562 (antibody, INN chains, looked up, V domains shown, IgG1) VH: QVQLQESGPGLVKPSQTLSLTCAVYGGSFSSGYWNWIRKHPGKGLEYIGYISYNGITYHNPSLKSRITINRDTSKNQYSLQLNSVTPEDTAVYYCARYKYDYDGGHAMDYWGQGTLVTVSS VL: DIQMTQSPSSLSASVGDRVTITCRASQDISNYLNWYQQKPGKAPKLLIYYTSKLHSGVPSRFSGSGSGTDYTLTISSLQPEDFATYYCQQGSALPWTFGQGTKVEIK , can you help?
0.01
